Assay: amyloid nucleation score (Sup35N fusion, yeast selection) (log enrichment); library NNK2; higher = more nucleation; inactive = no reads after selection;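 note: zero at mode of non-aggregating sequences after 7 days selection at 30°C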
Classify by measured amyloid nucleation score: Satisfied if it is equal to or exceeds -0.2, Not satisfied if it is smaller.

Req: Record LYFMCNFLTCSL ; criterion: amyloid nucleation score no lower than -0.2. Met?
Resp: Satisfied

Req: Try the sequence LRARTVVGEYCYSLYMQFVM
Resp: Satisfied

Req: Try the sequence MFSMGEAAAL
Resp: Satisfied

Req: Try the sequence REIARGRMYLGSPGLVDIVA
Resp: Not satisfied

Req: Try the sequence NNFWSNGG
Resp: Not satisfied

Req: Try the sequence SMSIYKAAYSFVTGSP
Resp: Satisfied

Req: Try the sequence IPIIGITNEVPMSVRFPSIF
Resp: Not satisfied

###

Experiment: amyloid nucleation score (Sup35N fusion, yeast selection) (log enrichment); library NNK2; higher = more nucleation; inactive = no reads after selection
measurement_label: amyloid nucleation score

Sample answers from the record:
{"substance": "REEYCSFTICWSLDALHDRG", "endpoint_result": 0.527}
{"substance": "RWCGIGRLGVSNGIVPCWEM", "endpoint_result": 0.647}
{"substance": "FVSHYHTAHTVEMASSQLTN", "endpoint_result": 0.503}
{"substance": "RGSRNNQVWGQSFFMPQWTA", "endpoint_result": -0.405}
{"substance": "SPQLTIYPRMYSRSLVLNRC", "endpoint_result": 0.078}

Req: What value of measured amyloid nucleation score is listed for WNMMPRASEQFYYRL ?
Resp: inactive

Req: Try the substance GVASNGKGFNTFMCAHCY
Resp: -0.225

Req: Try the substance AFPLRTVISGN
Resp: 0.484

Req: Try the substance SSAWLDLDIMLGLFVIVFTP
Resp: 5.44

Req: Try the substance DFIKMVV
Resp: 3.73

Req: Try the substance HLPVSLFYRDS
Resp: 0.165

###

Assay: amyloid nucleation score (Sup35N fusion, yeast selection) (log enrichment); library NNK3; higher = more nucleation; inactive = no reads after selection
measurement_label: amyloid nucleation score

{"substance": "ARASVFAMGDTPLWSG", "measurement_label": "amyloid nucleation score", "endpoint_result": "inactive"}
{"substance": "SLFIYGHYEHKHSGSLKFFA", "measurement_label": "amyloid nucleation score", "endpoint_result": "inactive"}
{"substance": "IVVLNVNTPWSMFQGVGSIQ", "measurement_label": "amyloid nucleation score", "endpoint_result": 2.58}
{"substance": "YTILVCYSAGVAYYNKGLVR", "measurement_label": "amyloid nucleation score", "endpoint_result": "inactive"}
{"substance": "SISLITFCRMCDAWLWRFGV", "measurement_label": "amyloid nucleation score", "endpoint_result": "inactive"}
{"substance": "PSCFLPFNCPITLVYTCSLF", "measurement_label": "amyloid nucleation score", "endpoint_result": 2.14}
{"substance": "TTILLTFDTGTIS", "measurement_label": "amyloid nucleation score", "endpoint_result": "inactive"}
{"substance": "MPVSYAG", "measurement_label": "amyloid nucleation score", "endpoint_result": "inactive"}

Here is the next item to consider.
Req: What value of measured amyloid nucleation score is listed for QEWVRYYYFVLYFNYVNGSW ?
Resp: inactive

Every entry's value here was drawn from the supplement of paper PMC12042874.
